Recorded values, source FireProtDB (doi:10.1038/75151).

B1: Cold shock protein CspB, P41016 (parent)
chain: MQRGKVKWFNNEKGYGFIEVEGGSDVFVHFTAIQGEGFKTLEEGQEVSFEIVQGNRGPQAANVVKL

Variants of: B1
PROTOCOL_CONDITIONS: Bacillus caldolyticus; pH 7; Thermal; CD; Sodium cacodylate-HCl 0.1 M; reversible: yes; structure 1C9O; whole UniProt chain shown
Using change of melting temperature, mutant - wild type (higher = more stable) as the sorting value, the categories are range A: < -2 °C; range B: ≥ -2 °C and < 0.9 °C; range C: ≥ 0.9 °C

1. Q53E | range B

Kindly identify the class of V64T .
range B

R3E L66E , same question.
range A

R3E , same question.
range A

G23Q , same question.
range A

Y15F , same question.
range B

Q2L , same question.
range C

E46A , same question.
range B

N11S , same question.
range C
